Assign cAMP Rel EC50 (1% HSA) to each entry below.
# Target or test system: T1, human GIP receptor (human) (UniProt P48546)
# T1 sequence (looked up): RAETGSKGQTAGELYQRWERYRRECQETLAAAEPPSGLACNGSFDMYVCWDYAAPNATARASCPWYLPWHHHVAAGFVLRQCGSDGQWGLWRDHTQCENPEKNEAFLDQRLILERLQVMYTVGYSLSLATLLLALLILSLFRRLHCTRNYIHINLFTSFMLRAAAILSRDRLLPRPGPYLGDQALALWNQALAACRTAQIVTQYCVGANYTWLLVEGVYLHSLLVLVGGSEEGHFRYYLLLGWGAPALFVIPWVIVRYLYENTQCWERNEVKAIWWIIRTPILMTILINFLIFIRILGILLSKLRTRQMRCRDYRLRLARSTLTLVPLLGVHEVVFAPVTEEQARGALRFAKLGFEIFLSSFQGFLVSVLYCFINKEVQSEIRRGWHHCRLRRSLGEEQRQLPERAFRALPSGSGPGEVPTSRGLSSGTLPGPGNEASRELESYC
# Protocol summary: cell-based or functional assay
Starred links: 1 amine or outer side, 2 acyl side, 3 side chain; linkers in the order of their positions; H or OH if unused. Non-standard residues stand in square brackets, D forms with d. Groups on a side chain read outwards from the residue. No end group written: not given here. *: point of attachment. C20 diacid = O=C(O)CCCCCCCCCCCCCCCCCCC(=O)*; Phe(4-CN) = N#Cc1ccc(C[C@H](N)C(=O)O)cc1; αMePhe(2-F) = C[C@](N)(Cc1ccccc1F)C(=O)O; γGlu = O=C(O)[C@H](CCC(=O)[*:2])N[*:1]; αMeL = CC(C)C[C@](C)(N)C(=O)O; AEEA = NCCOCCOCC(=O)O; Aib = CC(C)(N)C(=O)O
State the answer as a number, implicitly in nM.

INPUT: Endpoint output: cAMP Rel EC50 (1% HSA) of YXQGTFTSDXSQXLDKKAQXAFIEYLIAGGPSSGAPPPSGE (Aib, 4Pal, αMeL, Me4Pal; acylated lysine; amide; synthetic construct; SITE 2: note = 2-Aminoisobutyric Acid; SITE 10: note = 3-(4-Pyridyl)-L-alanine; SITE 13: note = alpha-methyl-leucine; SITE 17: note = Lysine is chemically modified through conjugation of the epsilon-amino group of the Lysine side chain with (Glu)2-(gamma-Glu)-CO-(CH2)16-CO2H; SI) [Example 1087] . Value?
OUTPUT: 23.3

INPUT: Would you mind doing Y[Aib]QGTFTSDYSI[αMeL]LDKQAAK([AEEA-AEEA-γGlu-C20 diacid])QFIEWLIEGGPSSGEPPPGEG-NH2 [Example 318] as well?
OUTPUT: 52.8

INPUT: Would you mind doing Y[Aib]QGT[αMePhe(2-F)]TSDYSKLLDKQAQK([AEEA-γGlu-C20 diacid])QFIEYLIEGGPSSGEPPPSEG-NH2 [Example 309] as well?
OUTPUT: 424

INPUT: Would you mind doing YXQGTXTSDXXIXLDXKAAXEFIEXLIEGGPSSGAPPPSGTEX (synthetic construct; SITE 2: note = 2-Aminoisobutyric Acid; SITE 6: note = alpha-methyl-2-fluoro-L-phenylalanine; SITE 10: note = 3-(4-Pyridyl)-L-alanine; SITE 11: note = alpha-methyl-L-serine; SITE 13: note = alpha-methyl-leucine; SITE 16: note = L-ornithine; SITE 17: note = Lysine is chemically mo) [Example 726] as well?
OUTPUT: 1.22

INPUT: Would you mind doing YXQGTXTSDXXIXLDXKAAXEFIEXLLEGGPSSGAPPPSGS (synthetic construct; SITE 2: note = 2-Aminoisobutyric Acid; SITE 6: note = alpha-methyl-2-fluoro-L-phenylalanine; SITE 10: note = 3-(4-Pyridyl)-L-alanine; SITE 11: note = alpha-methyl-L-serine; SITE 13: note = alpha-methyl-leucine; SITE 16: note = L-ornithine; SITE 17: note = Lysine is chemically mo) [Example 672] as well?
OUTPUT: 1.53

INPUT: Would you mind doing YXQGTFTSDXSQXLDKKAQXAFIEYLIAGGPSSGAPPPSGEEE (Aib, 4Pal, αMeL, Me4Pal, acylated K, C-terminal amide; synthetic construct; SITE 2: note = 2-Aminoisobutyric Acid; SITE 10: note = 3-(4-Pyridyl)-L-alanine; SITE 13: note = alpha-methyl-leucine; SITE 17: note = Lysine is chemically modified through conjugation of the epsilon-amino group of the Lysine side chain with D-Glutamic acid-(gamma-Glu)-CO-(CH2)16) [Example 1088] as well?
OUTPUT: 15.6

INPUT: Would you mind doing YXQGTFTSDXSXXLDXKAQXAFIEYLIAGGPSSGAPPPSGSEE (non-natural residues, C-terminal amide, acylated Lys with fatty diacid; synthetic construct; SITE 2: note = 2-Aminoisobutyric Acid; SITE 10: note = 3-(4-Pyridyl)-L-alanine; SITE 12: note = …; SITE 13: note = alpha-methyl-leucine; SITE 16: note = L-ornithine; SITE 17: note = Lysine is chemically modified through conjugation of the epsilon-amino group of the Lys) [Example 1061] as well?
OUTPUT: 55.6

INPUT: Would you mind doing YXQGTFTSDXSKXLDKKAQXAFIEXLIEXGPSSGAPPPSGS (Aib, 4Pal, αMeL, Me4Pal; acylated Lys; C-terminal amide; synthetic construct; SITE 2: note = 2-Aminoisobutyric Acid; SITE 10: note = 3-(4-Pyridyl)-L-alanine; SITE 13: note = alpha-methyl-leucine; SITE 17: note = Lysine is chemically modified through conjugation of the epsilon-amino group of the Lysine side chain with (2-[2-(2-Amino-ethoxy)-ethoxy]-acetyl)) [Example 914] as well?
OUTPUT: 5.94

INPUT: Would you mind doing YXQGTFTSDFSKXLDKKAQXAFIEXLIEXGPSSGAPPPSGS (non-natural residues, AEEA-γGlu-C18 diacid lysine acylation, C-terminal amide; synthetic construct; SITE 2: note = 2-Aminoisobutyric Acid; SITE 13: note = alpha-methyl-leucine; SITE 17: note = Lysine is chemically modified through conjugation of the epsilon-amino group of the Lysine side chain with (2-[2-(2-Amino-ethoxy)-ethoxy]-acetyl)-(gamma-Glu)-CO-(CH2) 16-CO2H; SITE 20: n) [Example 912] as well?
OUTPUT: 6.15

INPUT: Would you mind doing YXQGTFTSDXSQXLDXKAQXQFIQXLIAXGPSSGEPPPSGGGE (Aib, 4Pal, αMeL, Orn, Me4Pal, αMeY; acylated lysine; amide; synthetic construct; SITE 2: note = 2-Aminoisobutyric Acid; SITE 10: note = 3-(4-Pyridyl)-L-alanine; SITE 13: note = alpha-methyl-leucine; SITE 16: note = L-ornithine; SITE 17: note = Lysine is chemically modified through conjugation of the epsilon-amino group of the Lysine side chain with D-Glutami) [Example 1128] as well?
OUTPUT: 3.18

INPUT: Would you mind doing YXQGTFTSDXSQXLDKKAQXAFIEYLIEXGPSSGAPPPSGS (Aib, 4Pal, αMeL, Me4Pal; acylated Lys; C-terminal amide; synthetic construct; SITE 2: note = 2-Aminoisobutyric Acid; SITE 10: note = 3-(4-Pyridyl)-L-alanine; SITE 13: note = alpha-methyl-leucine; SITE 17: note = Lysine is chemically modified through conjugation of the epsilon-amino group of the Lysine side chain with (D-Glutamic acid)2-(gamma-Glu)-CO-(CH2)) [Example 921] as well?
OUTPUT: 12.4

INPUT: Would you mind doing Y[Aib]QGT[αMePhe(2-F)]TSDYSILLDKQAQKAFIEYLLEGGPSSGEPPPSEG-NH2 (not fully specified (residue 20)) [Example 345] as well?
OUTPUT: 15.3

INPUT: Would you mind doing YXQGTXTSDXSIXLDXKAAXAFIEXLLEGGPSSGEPPPS (synthetic construct; SITE 2: note = 2-Aminoisobutyric Acid; SITE 6: note = alpha-methyl-2-fluoro-L-phenylalanine; SITE 10: note = 3-(4-Pyridyl)-L-alanine; SITE 13: note = alpha-methyl-leucine; SITE 16: note = L-ornithine; SITE 17: note = Lysine is chemically modified through conjugation of the epsil) [Example 1236] as well?
OUTPUT: 11.9

INPUT: Would you mind doing YXQGTXTSDXXIXLDXKAQXXFIEXLIEGGPSSGEPPPEGE (synthetic construct; SITE 2: note = 2-Aminoisobutyric Acid; SITE 6: note = alpha-methyl-2-fluoro-L-phenylalanine; SITE 10: note = 3-(4-Pyridyl)-L-alanine; SITE 11: note = alpha-methyl-L-serine; SITE 13: note = alpha-methyl-leucine; SITE 16: note = L-ornithine; SITE 17: note = Lysine is chemically mo) [Example 698] as well?
OUTPUT: 0.824

INPUT: Would you mind doing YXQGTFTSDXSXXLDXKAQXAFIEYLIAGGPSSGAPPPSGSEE (C-terminal amide; lysine acylated with (Glu)2-γ-Glu-C18 diacid; synthetic construct; SITE 2: note = 2-Aminoisobutyric Acid; SITE 10: note = 3-(4-Pyridyl)-L-alanine; SITE 12: note = L-ornithine; SITE 13: note = alpha-methyl-leucine; SITE 16: note = L-ornithine; SITE 17: note = Lysine is chemically modified through conjugation of the epsilon-amino group of the Lys) [Example 1062] as well?
OUTPUT: 67.5

INPUT: Would you mind doing Y[Aib]QGT[αMePhe(2-F)]TSD[Phe(4-CN)]SILLDKQAQK([AEEA-AEEA-γGlu-C20 diacid])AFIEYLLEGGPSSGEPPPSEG-NH2 [Example 321] as well?
OUTPUT: 13

INPUT: Would you mind doing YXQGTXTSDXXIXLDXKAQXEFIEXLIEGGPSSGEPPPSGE (not fully specified; non-natural residues; acylated Lys; C-terminal amide; synthetic construct; SITE 2: note = 2-Aminoisobutyric Acid; SITE 6: note = alpha-methyl-2-fluoro-L-phenylalanine; SITE 10: note = 3-(4-Pyridyl)-L-alanine; SITE 11: note = alpha-methyl-L-serine; SITE 13: note = alpha-methyl-leucine; SITE 16: note = L-ornithine; SITE 17: note = Lysine is chemically mo) [Example 1151] as well?
OUTPUT: 0.287

INPUT: Would you mind doing YXQGTXTSDXXIXLDXXAQXEFIEXLIEGGPSSGAPPPSGGGE (synthetic construct; SITE 2: note = 2-Aminoisobutyric Acid; SITE 6: note = alpha-methyl-2-fluoro-L-phenylalanine; SITE 10: note = 3-(4-Pyridyl)-L-alanine; SITE 11: note = alpha-methyl-L-serine; SITE 13: note = alpha-methyl-leucine; SITE 16: note = L-ornithine; SITE 17: note = Ornithine is chemically) [Example 1213] as well?
OUTPUT: 0.616

INPUT: Would you mind doing Y[Aib]QGT[αMePhe(2-F)]TSDYSKLLDKIAQKAFIEYLIEGGPSSGAPPPSEG-NH2 (not fully specified (residue 20)) [Example 339] as well?
OUTPUT: 28.8

INPUT: Would you mind doing YXQGTXTSDXXIXLDXKAQXXFIEYLLEGGPSSGEPPPSGTE (synthetic construct; SITE 2: note = 2-Aminoisobutyric Acid; SITE 6: note = alpha-methyl-2-fluoro-L-phenylalanine; SITE 10: note = 3-(4-Pyridyl)-L-alanine; SITE 11: note = alpha-methyl-L-serine; SITE 13: note = alpha-methyl-leucine; SITE 16: note = L-ornithine; SITE 17: note = Lysine is chemically mo) [Example 532] as well?
OUTPUT: 1.49

INPUT: Would you mind doing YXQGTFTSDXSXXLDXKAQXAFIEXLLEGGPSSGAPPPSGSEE (Aib, 4Pal, Orn, αMeL, αMeY; lipidated Lys; C-terminal amide; synthetic construct; SITE 2: note = 2-Aminoisobutyric Acid; SITE 10: note = 3-(4-Pyridyl)-L-alanine; SITE 12: note = L-ornithine; SITE 13: note = alpha-methyl-leucine; SITE 16: note = L-ornithine; SITE 17: note = Lysine is chemically modified through conjugation of the epsilon-amino group of the Lys) [Example 1065] as well?
OUTPUT: 39.1

INPUT: Would you mind doing YXQGTXTSDXXIXLDXKAQXEFIEXLIEGGPSSGEPPPEGE (non-natural residues; AEEA-γGlu-C18 diacid on Lys; C-terminal amide; synthetic construct; SITE 2: note = 2-Aminoisobutyric Acid; SITE 6: note = alpha-methyl-2-fluoro-L-phenylalanine; SITE 10: note = 3-(4-Pyridyl)-L-alanine; SITE 11: note = alpha-methyl-L-serine; SITE 13: note = alpha-methyl-leucine; SITE 16: note = L-ornithine; SITE 17: note = Lysine is chemically mo) [Example 1149] as well?
OUTPUT: 0.96
